// CC50 lookup, one value per entry
- Assay Overview: in vitro
- Settings: CC50, beside the EC50 of c4
Readout Type: CC50

- Item Smiles: "Fc1ccc(/C=C/c2nnc(Cc3cncc(Br)c3)o2)c(Cl)c1"
  Readout Type: "CC50"
  Endpoint Value: "> 50 µM"
- Item Smiles: "Brc1ccc(Cc2nnc(Cc3cccc4ccccc34)o2)cc1"
  Readout Type: "CC50"
  Endpoint Value: "> 50 µM"
- Item Smiles: "CC(C)c1ccccc1CCc1nnc(Nc2ccc(Br)cc2)o1"
  Readout Type: "CC50"
  Endpoint Value: "> 50 µM"
- Item Smiles: "Brc1ccc(Cc2nnc(/C=C/c3ccccc3Br)o2)cc1"
  Readout Type: "CC50"
  Endpoint Value: "> 50 µM"
- Item Smiles: "CC(C)c1ccccc1CCc1nnc(Cc2ccc(OC(F)(F)F)cc2)o1"
  Readout Type: "CC50"
  Endpoint Value: "> 50 µM"

---

- Compound: "Cc1ccccc1CSc1ncc(C(=O)n2nc(C)c(Br)c2C)o1 [Compound 55]"
  melting point (°C): 123.6
- Compound: "Cc1cccc(/C=C/c2nnc(Cc3ccc(Br)cc3)o2)c1C [Compound 150]"
  melting point (°C): 126.9
- Compound: "OC(c1cccc(-c2ccccc2)c1)c1nnc(Cc2ccc(Br)cc2)o1 (stereo not drawn) [Compound 70]"
  melting point (°C): 137.6
- Compound: "Fc1ccccc1/C=C/c1nnc(Cc2cccc(Cl)c2)o1 [Compound 187]"
  melting point (°C): 117.3
- Compound: "Clc1ccc(/C=C/c2nnc(Cc3cccc(Br)c3)o2)c(Cl)c1 [Compound 192]"
  melting point (°C): 142.4
- Compound: "Fc1ccc(/C=C/c2nnc(Cc3cccc(Br)c3)o2)cc1F [Compound 191]"
  melting point (°C): 112.8
- Compound: "Brc1ccc(-c2nnc(SCc3ccccc3-c3ccccc3)o2)cc1 [Compound 42]"
  melting point (°C): 120.5
- Compound: "CC(C)c1cccc(Cc2nnc(/C=C/c3ccc(F)cc3Cl)o2)c1 [Compound 182]"
  melting point (°C): 117.3
- Compound: "Oc1ccccc1/C=C/c1nnc(Cc2cccc(Br)c2)o1 [Compound 218]"
  melting point (°C): 179.9

---

- Tested on: A/California/07/2009 (H1N1)
- Assay Overview: Antiviral activity (drug efficacy evaluation by concentration) against A/California/07/2009 (H1N1)
- Type: cell-based, A type influenza virus
- Settings: Influenza A virus, H1N1; read-out: EC50
// EC50 lookup, one value per entry
Readout Type: EC50

- Item Smiles: "FC(F)(F)Oc1ccc(Cc2nnc(SCc3ccccc3-c3ccccc3)o2)cc1"
  Target Or System: "A/California/07/2009 (H1N1)"
  Readout Type: "EC50"
  Endpoint Value: "11.5 µM"
- Item Smiles: "Cc1cccc(C)c1Nc1nnc(CCc2ccccc2C(C)C)o1"
  Target Or System: "A/California/07/2009 (H1N1)"
  Readout Type: "EC50"
  Endpoint Value: "> 50 µM"
- Item Smiles: "Brc1ccc(Cc2nnc(/C=C/c3ccccc3C3CCCCC3)o2)cc1"
  Target Or System: "A/California/07/2009 (H1N1)"
  Readout Type: "EC50"
  Endpoint Value: "31.8 µM"
- Item Smiles: "CC(C)c1cccc(/C=C/c2nnc(Cc3ccc(Br)cc3)o2)c1"
  Target Or System: "A/California/07/2009 (H1N1)"
  Readout Type: "EC50"
  Endpoint Value: "21.3 µM"
- Item Smiles: "CC(C)c1ccccc1CCc1nnc(Nc2ccc(Br)cc2)o1"
  Target Or System: "A/California/07/2009 (H1N1)"
  Readout Type: "EC50"
  Endpoint Value: "34.7 µM"
- Item Smiles: "CC(C)c1ccccc1CCc1nnc(Cc2ccc(Br)cc2)o1"
  Target Or System: "A/California/07/2009 (H1N1)"
  Readout Type: "EC50"
  Endpoint Value: "7.17 µM"
- Item Smiles: "FC(F)(F)c1ccc(Cl)c(/C=C/c2nnc(Cc3cccc(Br)c3)o2)c1"
  Target Or System: "A/California/07/2009 (H1N1)"
  Readout Type: "EC50"
  Endpoint Value: "8.55 µM"
- Item Smiles: "Cc1ccc(Cc2nnc(/C=C/c3ccccc3C(C)C)o2)cc1C"
  Target Or System: "A/California/07/2009 (H1N1)"
  Readout Type: "EC50"
  Endpoint Value: "5.27 µM"
- Item Smiles: "Clc1ccc(/C=C/c2nnc(Cc3ccc(Br)cc3)o2)cc1"
  Target Or System: "A/California/07/2009 (H1N1)"
  Readout Type: "EC50"
  Endpoint Value: "3.74 µM"

---

For each record, check the reported melting point: if it is below 200 °C write Yes, else write No.

- Item Smiles: "O=C(Nc1cccc(Br)c1)c1nnc(/C=C/c2ccc(F)cc2Cl)o1"
  Qualitative Label: "No"
- Item Smiles: "Oc1cccc(Cc2nnc(/C=C/c3ccc(F)cc3Cl)o2)c1"
  Qualitative Label: "Yes"
- Item Smiles: "FC(F)(F)c1cccc(/C=C/c2nnc(Cc3ccc(Br)cc3)o2)c1Cl"
  Qualitative Label: "Yes"
- Item Smiles: "CC(C)c1ccccc1/C=C/c1nnc(Cc2ccc(Br)cc2)o1"
  Qualitative Label: "Yes"
- Item Smiles: "Cc1c(Br)cccc1Cc1nnc(/C=C/c2ccc(F)cc2Cl)o1"
  Qualitative Label: "Yes"

---

// melting point lookup, one value per entry
Readout Type: melting point (°C)

- Compound: "CC(C)c1ccccc1/C=C/c1nnc(Nc2ccc(Br)cc2)o1 [Compound 117]"
  Endpoint Value: 225.6
- Compound: "Cc1ccccc1CCc1nnc(Nc2ccc(Br)cc2)o1 [Compound 89]"
  Endpoint Value: 153.5
- Compound: "Fc1ccc(/C=C/c2nnc(Cc3cccc(C4CC4)c3)o2)c(Cl)c1 [Compound 267]"
  Endpoint Value: 110.2
- Compound: "Cc1ccc(Cc2nnc(/C=C/c3ccc(F)cc3Cl)o2)cc1Cl [Compound 300]"
  Endpoint Value: 161.4
- Compound: "Cc1ccc(Cc2nnc(/C=C/c3ccc(F)cc3Cl)o2)cc1Br [Compound 181]"
  Endpoint Value: 139

---

// pEC50 lookup, one value per entry
- Tested on: A/California/07/2009 (H1N1)
- Assay Overview: Antiviral activity (drug efficacy evaluation by concentration) against A/California/07/2009 (H1N1)
- Type: cell-based, A type influenza virus
- Settings: Influenza A virus, H1N1; read-out: EC50
pEC50: −log10 of the molar value.

- Compound: "CC(C)c1ccccc1/C=C/c1nnc(Cc2cccc3ccccc23)o1 [Compound 132]"
  pEC50: 5.82
- Compound: "Brc1ccc(Cc2nnc(/C=C/c3ccccc3Oc3ccccc3)o2)cc1 [Compound 127]"
  pEC50: 4.46
- Compound: "Brc1ccc(Cc2noc(/C=C/c3ccccc3)n2)cc1 [Compound 174]"
  pEC50: 5.42
- Compound: "CC(C)c1ccccc1/C=C/c1nnc(Cc2ccc(Br)cc2F)o1 [Compound 169]"
  pEC50: 5.67
- Compound: "Clc1cccc(Cc2nnc(SCc3ccccc3-c3ccccc3)o2)c1 [Compound 95]"
  pEC50: 4.90
- Compound: "Brc1ccc(Cc2nnc(CC3CCCc4ccccc43)o2)cc1 (stereo not drawn) [Compound 109]"
  pEC50: 4.34
- Compound: "Cc1ccccc1CCc1nnc(Nc2ccc(C(F)(F)F)cc2)o1 [Compound 123]"
  pEC50: 4.85
- Compound: "CC(C)c1ccccc1/C=C/c1nnc(Cc2cccc(Br)c2)o1 [Compound 130]"
  pEC50: 4.37
- Compound: "Fc1ccc(/C=C/c2nnc(Nc3ccc(Br)cc3)o2)c(Cl)c1 [Compound 87]"
  pEC50: 5.56

---

Readout Type: melting point (°C)

- Molecule: "Fc1cccc(/C=C/c2nnc(Cc3cccc(Br)c3)o2)c1Cl"
  Readout Type: "melting point"
  Endpoint Value: 140.2
- Molecule: "Cc1nn(Cc2nnc(SCc3ccccc3Oc3ccccc3)o2)c(C)c1Br"
  Readout Type: "melting point"
  Endpoint Value: 92.3
- Molecule: "Brc1ccc(Cc2nnc(/C=C/c3ccccc3Oc3ccccc3)o2)cc1"
  Readout Type: "melting point"
  Endpoint Value: 125.5
- Molecule: "Clc1ccccc1/C=C/c1nnc(Cc2ccc(Br)cc2)o1"
  Readout Type: "melting point"
  Endpoint Value: 136.3
- Molecule: "O=C(c1cccc(-c2ccccc2)c1)c1nnc(Cc2ccc(Br)cc2)o1"
  Readout Type: "melting point"
  Endpoint Value: 166.4
- Molecule: "Fc1ccc(/C=C/c2nnc(Cc3cccc(Br)c3)o2)c(Cl)c1"
  Readout Type: "melting point"
  Endpoint Value: 121.7
- Molecule: "[O-][S+](Cc1ccccc1-c1ccccc1)c1nnc(Nc2ccc(Br)cc2)o1 (stereo not drawn)"
  Readout Type: "melting point"
  Endpoint Value: 199
- Molecule: "Fc1cc(F)c(/C=C/c2nnc(Cc3cccc(Br)c3)o2)c(Br)c1"
  Readout Type: "melting point"
  Endpoint Value: 118.2
- Molecule: "Brc1ccc(Nc2nnc(/C=C/c3ccccc3-c3ccccc3)o2)cc1"
  Readout Type: "melting point"
  Endpoint Value: 239.3
